- Measured on: acetylcholinesterase (Homo sapiens, UniProt P22303)
- Sequence (P22303 32-614): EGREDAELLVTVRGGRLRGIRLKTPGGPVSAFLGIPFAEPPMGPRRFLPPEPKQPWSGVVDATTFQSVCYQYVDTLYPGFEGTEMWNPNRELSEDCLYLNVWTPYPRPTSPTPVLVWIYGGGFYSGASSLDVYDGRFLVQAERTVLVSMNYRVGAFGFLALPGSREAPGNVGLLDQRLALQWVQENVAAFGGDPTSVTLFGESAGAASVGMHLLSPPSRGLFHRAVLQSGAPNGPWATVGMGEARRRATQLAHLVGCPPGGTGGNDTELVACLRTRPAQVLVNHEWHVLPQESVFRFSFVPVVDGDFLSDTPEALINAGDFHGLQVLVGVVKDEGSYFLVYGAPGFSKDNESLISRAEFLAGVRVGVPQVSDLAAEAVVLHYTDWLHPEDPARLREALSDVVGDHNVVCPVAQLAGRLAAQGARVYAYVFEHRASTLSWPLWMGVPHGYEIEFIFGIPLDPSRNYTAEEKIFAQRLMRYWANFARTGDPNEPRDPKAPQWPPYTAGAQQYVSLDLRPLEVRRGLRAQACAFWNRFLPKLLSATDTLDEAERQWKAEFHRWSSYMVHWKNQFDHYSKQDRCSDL
- Test description: Cholinesterase Inhibition Assay (photometric method of Ellman et al.)
- Assay type: biochemical
Labelling: IC50 reported below 600 µM becomes TRUE; at or above becomes FALSE.

Record excerpt, results attached:
Molecule | Assigned category
OC1CCCc2nc3ccccc3c(NCc3ccc(C(F)(F)F)cc3)c21 (stereo not drawn) | TRUE
OC1CCCc2nc3ccccc3c(NCc3ccccc3C(F)(F)F)c21 (stereo not drawn) | FALSE
OC1CCCc2nc3ccccc3c(NCc3c(F)c(F)c(F)c(F)c3F)c21 (stereo not drawn) [fumarate] | TRUE
OC1CCCc2nc3ccccc3c(NCc3ccccc3F)c21 (stereo not drawn) [maleate] | TRUE
OC1CCCc2nc3ccccc3c(NCc3ccccc3Cl)c21 (stereo not drawn) | TRUE

Here's the next entry for you.
Quick check: IC50 of OC1CCCc2nc3ccccc3c(NCc3ccc(F)cc3)c21 (stereo not drawn) under 600 µM?
TRUE

---

- Measured on: acetylcholinesterase (Homo sapiens)
- Test description: Cholinesterase Inhibition Assay (photometric method of Ellman et al.)
- Assay type: biochemical
Listed next: entries and their corresponding IC50.
Numbers only; they are read as µM.

Some solved cases for reference:
Molecule | Measured on | IC50 [µM]
O=C1CCCc2nc3ccccc3c(NCCCC(c3ccccc3)c3ccccc3)c21 | acetylcholinesterase (Homo sapiens) | 13
O=C1CCCc2nc3ccccc3c(NCCCC(c3cccc(F)c3)c3cccc(F)c3)c21 | acetylcholinesterase (Homo sapiens) | 1.9
COc1ccccc1CNc1c2c(nc3ccccc13)CCCC2O (stereo not shown) | acetylcholinesterase (Homo sapiens) | 150

Could you now consider this next molecule?
Return the recorded IC50 value; entry: Nc1c2c(nc3ccccc13)CCC=C2 [9-Amino-3,4-dihydroacridine]
6.5

---

- Measured on: acetylcholinesterase (Homo sapiens, UniProt P22303)
- Test description: Cholinesterase Inhibition Assay (photometric method of Ellman et al.)
- Type: biochemical
- Condition description: photometric method of Ellman; read-out: Cholinesterase Inhibition IC50
Observation type: pIC50
# pIC50: negative log10 of molar concentration; output just the value

Compound | pIC50
Nc1c2c(nc3ccccc13)CCCC2=O [9-Amino-3,4-dihydroacridin-1(2H)--one, 9-Amino-3,4-dihydroacridin-1(2H)-one] | 3.60

Report the value of pIC50 obtained on acetylcholinesterase (Homo sapiens, UniProt P22303) for OC1CCCc2nc3ccccc3c(NCCc3ccccc3)c21 (centres unmarked) .
3.62
